Assay: Human 5-HTP gastrointestinal regional absorption study (plasma 5-HTP)
Type: in vivo
Settings: both sexes, plasma, intravenous dosing 50 mg
valueKind: AUC (ng·h/mL)
Give the value in ng·h/mL but do not write ng·h/mL after it.

Consider the molecule N[C@@H](Cc1c[nH]c2ccc(O)cc12)C(=O)O [5-HTP, 5-hydroxytryptophan] and give its measured AUC.
2040

###

Experiment: Human 5-HTP gastrointestinal regional absorption study (plasma 5-HTP)
Type: in vivo
Details: both sexes, plasma, other: intra-colonic by colonoscopy, colonic dosing 200 mg
valueKind: AUC

Which AUC value is on record for N[C@@H](Cc1c[nH]c2ccc(O)cc12)C(=O)O [5-HTP, 5-hydroxytryptophan] ?
312 ng·h/mL
